# measured.target: T1, RBFOX1 RRM (Homo sapiens, UniProt Q9NWB1 109-208)
# T1 sequence: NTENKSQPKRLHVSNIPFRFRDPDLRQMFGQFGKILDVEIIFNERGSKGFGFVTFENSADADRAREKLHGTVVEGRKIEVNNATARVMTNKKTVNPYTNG
# assay.method.text: EMSA; HiTS-Eq, 1 nM pool, 10 min; buffer printed only for the single-RNA assays: 10 mM Tris pH 7.5, 150 mM NaCl, 3.4 mM EDTA, 0.001% NP-40, 30 C
# settings: tags: His6 N-terminal (pET28a); label: 5' 32P
Whole data set: some 16,000 sequences, median “ka relative to ugcaugu” near 0.0091, cut for the highest 2% near 0.032. Shown is part of a subset that was picked to be rich in the highest values.
property.label: binding signal

CCGCUUG (DNA:RNA) RNA: GGGAGACCGGAAUUCAGAUUGUCCCCGCUUGUUAAAUCCCGUCGUAGCCACCA DNA 1: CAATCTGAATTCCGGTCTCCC DNA 2: TGGTGGCTACGACGGGATT = 0.0253 KA relative to UGCAUGU

Next binder, please.
[Q] Query: binding signal; subject: GUCCGCU (DNA:RNA) RNA: GGGAGACCGGAAUUCAGAUUGUCCGUCCGCUUUAAAUCCCGUCGUAGCCACCA DNA 1: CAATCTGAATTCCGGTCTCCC DNA 2: TGGTGGCTACGACGGGATT
[A] 0.0113 KA relative to UGCAUGU
